Target: T1, VLP-hCLDN6 (human) (UniProt P56747)
T1 sequence: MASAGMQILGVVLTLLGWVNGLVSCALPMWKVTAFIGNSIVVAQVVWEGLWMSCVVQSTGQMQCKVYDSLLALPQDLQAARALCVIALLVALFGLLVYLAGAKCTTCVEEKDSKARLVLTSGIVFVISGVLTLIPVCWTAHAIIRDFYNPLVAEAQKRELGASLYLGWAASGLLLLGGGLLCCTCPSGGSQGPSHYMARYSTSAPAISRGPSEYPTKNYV
Assay: ELISA, coated VLP-hCLDN6, 100 ul antibody sample, HRP-Protein A
Hi there, I'd appreciate the recorded OD450 for every entry that follows.
# respond with the number and nothing more

## Input Give me measured OD450, please, for this binder: humanized antibody hAb-10 (antibody, V domains shown) VH: EVKLVESGGGLVKPGGSLRLSCAASGFTFNSYTMSWVRQTPAKRLEWVVTISSGGGRTYYPDSVKGRFTISRDNAKNTLYLQMSSLRAEDTAVYYCIRGDYRYDGFAYWGQGTLVTVSS VL: DIQMTQSPSSLSASVGDRVTITCRASENIDSYLAWYQQKPGKSPQLLVYASTLLQDGVPSRFSGSRSGTDFTLTISSLQPEDVATYYCQHYYSIPYTFGSGTKLEIK
## Output 1.5

## Input Give me measured OD450, please, for this binder: humanized antibody hAb-6 (antibody, V domains shown) VH: EVKLVESGGGLVKPGGSLRLSCAASGFTFNSYTMSWVRQAPGKRLEWVVTISSGGGRTYYPDSVKGRFTISRDNAKNTLYLQMSSLRAEDTAVYYCIRGDYRYDGFAYWGQGTLVTVSS VL: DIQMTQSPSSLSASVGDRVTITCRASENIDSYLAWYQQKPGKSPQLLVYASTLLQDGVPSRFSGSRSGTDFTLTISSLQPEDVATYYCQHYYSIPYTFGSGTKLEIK
## Output 1.55

## Input Give me measured OD450, please, for this binder: humanized antibody hAb-18 (antibody, V domains shown) VH: EVKLVESGGGLVQPGGSLRLSCAASGFTFNSYTMSWVRQTPAKRLEWVVTISSGGGRTYYPDSVKGRFTISRDNAKNTLYLQMSSLRAEDTAVYYCIRGDYRYDGFAYWGQGTLVTVSS VL: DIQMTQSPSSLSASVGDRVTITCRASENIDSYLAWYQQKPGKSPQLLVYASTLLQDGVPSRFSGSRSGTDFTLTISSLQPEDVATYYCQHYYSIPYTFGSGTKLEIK
## Output 1.68
